Ref: the C3SDB collision cross section collection

# conditions.used: [M-H]-; instrument: DT; single field, calibrated with Agilent tune mix (Agilent)
readout: collision cross section (N2) (Å²)

1. C[C@H](CCCC(C)(C)O)[C@H]1CC[C@H]2[C@@H]3CC=C4C[C@@H](O)CC[C@]4(C)[C@H]3CC[C@]12C [25-Hydroxycholesterol]
2. COc1cc(C(O)C(=O)O)ccc1O (racemic)
Lookup: Between the two listed entries 1 and 2 , which has its collision cross section (N2) at the higher number? Kindly state the label of the option you pick.
Found: 1

---

# conditions.used: [M-H]-; instrument: DT; single field, calibrated with Agilent tune mix (Agilent)
readout: collision cross section (N2) (Å²)

>  <compound>
CC(CCC(=O)O)CC(=O)O (stereo unspecified) [3-Methyladipic acid]

>  <readout>
collision cross section (N2)

>  <result.value>
129.01

$$$$

A. CC(C)CC(=O)NCC(=O)O [Isovalerylglycine]
B. CC(C)C(=O)SCCNC(=O)CCNC(=O)[C@H](O)C(C)(C)COP(=O)(O)OP(=O)(O)OC[C@H]1O[C@@H](n2cnc3c(N)ncnc32)[C@H](O)[C@@H]1OP(=O)(O)O [Isobutyryl-CoA]
Lookup: # min-compare on collision cross section (N2) between A and B Kindly state the label of the option you pick.
Found: A
(A: 138.14 Å², B: 254.31 Å²)

I. Nc1cccc(C(=O)O)c1O [3-Aminosalicylic acid]
II. Nc1ncnc2c1ncn2[C@H]1C[C@H](O)[C@@H](COP(=O)(O)OP(=O)(O)OP(=O)(O)O)O1 [2'-Deoxyadenosine 5'-triphosphate]
Lookup: # min-compare on collision cross section (N2) between I and II Kindly state the label of the option you pick.
Found: I
